Entry source: the kinase profiling compilation of Christmann-Franck et al. (2016)

Parameter inhibition: see the listing below.
biological target: EEF2K (human) (UniProt O00418); experiment: radiometric filter-binding kinase assay; settings: compound 100.0 µM; ATP 5 µM
Sequence (O00418 whole entry, looked up): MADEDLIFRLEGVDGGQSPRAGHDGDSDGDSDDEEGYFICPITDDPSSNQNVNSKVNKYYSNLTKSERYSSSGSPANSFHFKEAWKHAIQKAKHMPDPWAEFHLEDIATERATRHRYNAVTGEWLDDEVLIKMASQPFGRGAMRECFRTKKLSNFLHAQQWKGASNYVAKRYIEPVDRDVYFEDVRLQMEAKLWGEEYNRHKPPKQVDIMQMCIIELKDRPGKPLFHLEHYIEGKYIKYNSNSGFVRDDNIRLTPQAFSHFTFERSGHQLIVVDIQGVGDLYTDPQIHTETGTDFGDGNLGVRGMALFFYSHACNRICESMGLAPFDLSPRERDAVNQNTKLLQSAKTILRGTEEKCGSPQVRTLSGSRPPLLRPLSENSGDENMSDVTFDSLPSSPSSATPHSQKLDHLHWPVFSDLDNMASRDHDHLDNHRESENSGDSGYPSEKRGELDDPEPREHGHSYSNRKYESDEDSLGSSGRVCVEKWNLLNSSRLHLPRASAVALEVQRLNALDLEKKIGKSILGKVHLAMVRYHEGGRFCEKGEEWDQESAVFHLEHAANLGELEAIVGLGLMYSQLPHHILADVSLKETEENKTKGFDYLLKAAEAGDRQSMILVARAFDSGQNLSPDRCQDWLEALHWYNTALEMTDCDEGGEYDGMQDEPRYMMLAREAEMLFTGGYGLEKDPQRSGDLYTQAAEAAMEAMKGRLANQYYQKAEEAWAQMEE
The answer is to be given in %; state only the numeric part.

The cases that follow already have their inhibition on record.
| molecule | unit.label | inhibition |
| --- | --- | --- |
| O=C(Nc1cnc2[nH]ccn2c1=O)c1ccccc1 | % | 11 |
| CC(C)(C)Nc1c(COCc2ccccc2)nc2[nH]cnn12 | % | 0 |
| O=c1c(NC(=S)NCc2ccccc2)cnc2[nH]ccn12 | % | 6 |
| CC(=O)Nc1nc2cnc(-c3c(C)cccc3C)cn2n1 | % | 7 |
| O=C(c1cccc(-c2cc3c(=O)[nH]cnc3s2)c1)N1CCOCC1 | % | 39 |

stdin: Return value of inhibition for input "O=c1cc(-c2ccccc2F)nc2[nH]ccn12" , no commentary.
stdout: 7

stdin: Return value of inhibition for input "COc1ccc(NC(=S)Nc2cnc3[nH]cnn3c2=O)cn1" , no commentary.
stdout: 10
